The origin of these recorded values is patent US20230142565A1.

Task for the reader: assign each of the following compounds its reported melting point.

Look over these answered cases.
compound	melting point
CC1(C)CC(Cc2nccs2)N=C(c2cnc3c(F)c(F)ccc3c2)O1 (stereo not shown)	105 to 113 °C
CC1(C)CC(Cc2cncs2)N=C(c2cnc3c(F)c(F)ccc3c2)O1 (stereo not shown)	122 to 127 °C
CC1(C)CC(Cc2ccccn2)N=C(c2cnc3c(F)c(F)ccc3c2)O1 (stereo not shown)	120 to 123 °C

Qu. Answer with reported melting point of CC1(C)CC(Cc2cccc(F)n2)N=C(c2cnc3c(F)c(F)ccc3c2)O1 (stereo not shown)
Ans. 129 to 131 °C

----------
Task for the reader: assign each of the following compounds its reported inhibition of growth at 20 ppm.
Tested on: Monographella nivalis (Microdochium nivale)
Experiment: Monographella nivalis (Microdochium nivale) / liquid culture (foot rot cereals)
Assay type: cell-based
Settings: inhibition of growth determined photometrically 4-5 days after application, compared to untreated control

Look over these answered cases.
compound	result
CC1(C)CC(Cn2ccc(C(F)F)n2)N=C(c2cnc3c(F)c(F)ccc3c2)S1 (stereo not drawn)	≥ 80%
CC1(C)CC(Cc2ccccn2)N=C(c2cnc3c(F)c(F)ccc3c2)O1 (stereo not drawn)	≥ 80%
CC1(C)CC(Cc2ccccn2)N=C(c2cnc3c(F)c(F)ccc3c2)S1 (stereo not drawn)	≥ 80%
CC1(C)CC(Cc2cccnc2)N=C(c2cnc3c(F)cccc3c2)O1 (stereo not drawn)	≥ 80%
CC1(C)CC(Cc2cccc(F)n2)N=C(c2cnc3c(F)c(F)ccc3c2)O1 (stereo not drawn)	≥ 80%

Hi team, please reply with inhibition of growth at 20 ppm for each item in this list.
1. CC1(C)CC(Cc2cscn2)N=C(c2cnc3c(F)c(F)ccc3c2)O1 (stereo not drawn)
2. CC1(C)CC(Cn2cc(F)cn2)N=C(c2cnc3c(F)c(F)ccc3c2)S1 (stereo not drawn)
3. CC1(C)CC(Cn2ccc(Cl)n2)N=C(c2cnc3c(F)c(F)ccc3c2)S1 (stereo not drawn)

Ans.
1: ≥ 80%; 2: ≥ 80%; 3: ≥ 80%

Qu. Provide inhibition of growth at 20 ppm, tested on Monographella nivalis (Microdochium nivale), for CC1(C)CC(Cc2cncs2)N=C(c2cnc3c(F)c(F)ccc3c2)O1 (stereo not drawn) .
Ans. ≥ 80%
